# Target or system: HIV-integrase (Human immunodeficiency virus type 1 group M subtype B)
# Construct: Recombinant integrase (0.26 ng) was incubated with the beads
# Assay explanation: HIV-Integrase Inhibition Activity (SPA bead integration assay with P33 labeled target DNA)
# Type: biochemical
# Experimental setup: recombinant integrase, class symbols; read-out: in vitro activity
pIC50: −log10 of the molar value.
Endpoint label: pIC50

[[record]]
smiles_code = "CN(C)C(=O)C(=O)NC12CCC(CC1)Cn1c2nc(C(=O)NCCc2ccc(Cl)cc2)c(O)c1=O"
reported = "7.00 to 8.00"

[[record]]
smiles_code = "CN(C)C(=O)C(=O)NC12CCC(CC1)Cn1c2nc(C(=O)NCc2ccccc2)c(O)c1=O"
reported = "> 8.00"

[[record]]
smiles_code = "CNC(=S)NC12CCC(CC1)Cn1c2nc(C(=O)NCc2ccc(F)cc2)c(O)c1=O"
reported = "> 8.00"

[[record]]
smiles_code = "Cc1cc(CNC(=O)c2nc3n(c(=O)c2O)CC2CCC3(NC(=O)C3(C(F)(F)F)CC3)CC2)ccc1F"
reported = "< 7.00"

[[record]]
smiles_code = "CN(C)CCN(C)C(=O)C(=O)NC12CCC(CC1)Cn1c2nc(C(=O)NCc2ccc(F)cc2)c(O)c1=O"
reported = "> 8.00"

[[record]]
smiles_code = "CN(C)C(=O)C(=O)NC12CCC(CC1)Cn1c2nc(C(=O)NCCc2ccc(F)cc2)c(O)c1=O"
reported = "7.00 to 8.00"

[[record]]
smiles_code = "O=C(NC12CCC(CC1)Cn1c2nc(C(=O)NCc2ccc(F)cc2)c(O)c1=O)C(=O)N1CCN(C(=O)N2CCOCC2)CC1"
reported = "> 8.00"


---

# Target or system: HIV-integrase (Human immunodeficiency virus type 1 group M subtype B, UniProt P12497)
# Construct: Recombinant integrase (0.26 ng) was incubated with the beads
# Assay explanation: HIV-Integrase Inhibition Activity (SPA bead integration assay with P33 labeled target DNA)
# Assay type: biochemical
# Experimental setup: recombinant integrase, class symbols; read-out: in vitro activity
# Method: HIV-Integrase Inhibition Activity. To evaluate in-vitro activity against HIV-integrase, 5 pmole of biotin labeled substrate DNA was bound to 100 μg of Streptavidin coated PVT SPA beads (Amersham Pharmacia Biotech). Recombinant integrase (0.26 ng) was incubated with the beads for 90 min at 37° C. […] Samples were counted in TopCountNXT (Packard) and the CPM was used as a measure of integration. […]
pIC50: −log10 of the molar value.
Endpoint label: pIC50

[[record]]
molecule = "CN(C)C(=O)C(=O)NC12CCC(CC1)Cn1c2nc(C(=O)NCc2ccc(F)cc2-c2ncnn2C)c(O)c1=O [Example 107]"
reported = "7.00 to 8.00"

[[record]]
molecule = "CN(C(=O)OCc1ccccc1)C1c2nc(C(=O)NCc3ccc(F)cc3)c(O)c(=O)n2CC2CCC1C2 (stereo not drawn) [Example 8]"
reported = "> 8.00"

[[record]]
molecule = "CN(C)CC(=O)NC12CCC(CC1)Cn1c2nc(C(=O)NCc2ccc(F)cc2)c(O)c1=O [Example 29]"
reported = "7.00 to 8.00"

[[record]]
molecule = "Cc1cc(CNC(=O)c2nc3n(c(=O)c2O)CC2CCC3(NC(=O)C(=O)N(C)C)C2)ccc1F (stereo not drawn) [Example 196]"
reported = "> 8.00"

[[record]]
molecule = "CS(=O)(=O)NC12CCC(Cn3c1nc(C(=O)NCc1ccc(F)cc1)c(O)c3=O)C2 (stereo not drawn) [Example 192]"
reported = "> 8.00"

[[record]]
molecule = "Cc1cc(CNC(=O)c2nc3n(c(=O)c2O)CC2CCC3(NC(=O)[C@@H]3CCN3S(C)(=O)=O)CC2)ccc1F [Example 276]"
reported = "> 8.00"

